Each recorded value in this set is attributed to the supplement of paper PMC6555819.

Test system: RARa homodimer (NR concentration 270 nM)
methodDescription: PBM binding z-score (relative to random genomic background probes); higher = stronger binding; sequences stand for … in GC…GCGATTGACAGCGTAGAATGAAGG
measurementKind: PBM binding z-score
Numbers only.

IN: Bench note: what PBM binding z-score did `CGTCCAAGGTCAAAGGTCAGTGAGGAGATGACGG` show?
OUT: 5.49

IN: Bench note: what PBM binding z-score did `TCTTGTAGATCAATAGGGGTTAAGAAAGTGCGCT` show?
OUT: 0.509

IN: Bench note: what PBM binding z-score did `GCGACTGGCGCATCAGCAGGTTACCATAACTTAA` show?
OUT: -0.992

IN: Bench note: what PBM binding z-score did `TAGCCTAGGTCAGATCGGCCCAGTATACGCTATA` show?
OUT: -0.69

IN: Bench note: what PBM binding z-score did `ACTGACGGGTCAACGAGGTTATAGCACGCGTATA` show?
OUT: 0.626

Now look at this one.
IN: Bench note: what PBM binding z-score did `ATCTCTAGGTAAAAGTTGAGTGAATCCCGAGGAT` show?
OUT: 0.494

* * *

Test system: THRa homodimer (NR concentration 90 nM)
methodDescription: PBM binding z-score (relative to random genomic background probes); higher = stronger binding; sequences stand for … in GC…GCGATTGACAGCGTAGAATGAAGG
measurementKind: PBM binding z-score
Answers are plain numbers.

The examples below pair each entry with its known result.
IN: Bench note: what PBM binding z-score did `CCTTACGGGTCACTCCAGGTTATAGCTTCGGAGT` show?
OUT: 0.616

IN: Bench note: what PBM binding z-score did `TCTTGTAGATCAATAGAGGTTATGAAAGTGCGCT` show?
OUT: -0.187

IN: Bench note: what PBM binding z-score did `GTTATTAGTTGAAAGGGCAACCGAATGATTCTCG` show?
OUT: 0.669

State recorded PBM binding z-score for all listed sequences.
1. GGAACGAGTGCAAAGTTGATAGCATCTGTCGACG
2. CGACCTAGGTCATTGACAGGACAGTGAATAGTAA
3. CCTACTGGGCCATCCGGTCATTGATATCAACGTT
4. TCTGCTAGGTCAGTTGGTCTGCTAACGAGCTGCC
5. CATACAGGGTCAGGTAGGCCAGAGTAGGGACGGC
6. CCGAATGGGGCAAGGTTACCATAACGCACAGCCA

OUT:
1: -0.711; 2: 0.892; 3: 0.677; 4: -0.124; 5: 0.964; 6: 0.404

State recorded PBM binding z-score for all listed sequences.
1. CGTCCAAGGTCAGAGAGGTCAGCGAATGCCGAGT
2. ATATGTAAGTTAAGGGTCATTCAGGTTGGTTCGC
3. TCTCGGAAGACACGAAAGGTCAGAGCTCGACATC

OUT:
1. 2.86
2. 1.55
3. 0.266

* * *

Test system: VDR homodimer (NR concentration 270 nM)
methodDescription: PBM binding z-score (relative to random genomic background probes); higher = stronger binding; sequences stand for … in GC…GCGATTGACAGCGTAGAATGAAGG
Please go through the items and note down their PBM binding z-score.
Answers are plain numbers.

The examples below pair each entry with its known result.
IN: Bench note: what PBM binding z-score did `TCTTGTAGATCAACACGAGGTTAAGAAAGATCGA` show?
OUT: 0.099

IN: Bench note: what PBM binding z-score did `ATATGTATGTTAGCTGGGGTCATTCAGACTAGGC` show?
OUT: 4.67

IN: Bench note: what PBM binding z-score did `TCGAGTAGGTTACCAATGGGGCATTCAGCTTTCT` show?
OUT: -0.59

State recorded PBM binding z-score for all listed sequences.
1. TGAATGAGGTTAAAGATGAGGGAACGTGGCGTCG
2. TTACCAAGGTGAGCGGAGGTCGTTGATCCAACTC
3. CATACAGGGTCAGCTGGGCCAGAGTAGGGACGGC
4. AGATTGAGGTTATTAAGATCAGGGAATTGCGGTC

OUT:
[0.849, 0.886, 1.18, 1.49]
